System: NCI-H2085
ASSAY_PROCEDURE: relative viability (nuclei count vs DMSO), 5 days (fraction); higher = more cells survive
CONDITION_DESCRIPTION: first compound 0.4 µM
Quick reference: relative viability of the listed items.
EXPERIMENTAL_READOUT: relative viability

# MOLECULE, RESULT_NUMBER
records = [
    ("Cc1sc2c(c1C)C(c1ccc(Cl)cc1)=N[C@@H](CC(=O)OC(C)(C)C)c1nnc(C)n1-2 [JQ1] + O=C(c1cc(Cc2n[nH]c(=O)c3ccccc23)ccc1F)N1CCN(C(=O)C2CC2)CC1 [Olaparib] (partner 8 µM)", 0.693),
    ("Cc1sc2c(c1C)C(c1ccc(Cl)cc1)=N[C@@H](CC(=O)OC(C)(C)C)c1nnc(C)n1-2 [JQ1] + Cc1nc(NC(=O)N2CCC[C@H]2C(N)=O)sc1-c1ccnc(C(C)(C)C(F)(F)F)c1 [Alpelisib] (partner 2 µM)", 0.824),
]
